- Test system: K4 kissing-loop RNA reporter;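 also: bound reporter read as fluorescence of individual clusters on recovered sequencing chips by microscopy, with normalized cluster intensities fitted with a binding model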
- experiment.notes: apparent KD of K4 kissing-loop reporter; higher = weaker reporter binding
- measurement.setup: Eterna round: R107; input ligand: theophylline 20 uM
Would you mind labelling by apparent KD of K4 kissing-loop reporter? At or over 200 nM is yes (1), under is no (0).

Recorded results for 6 sequences are shown here.
[[record]]
chain_sequence = "UUGGCAGUGAUGUUGCCAGAGUUCACCGAAGGAGCGGGUGAAAACCCAGGUAGGUCGCGGUAGCGGAGUGAUUCUCCGCGAGGGC [Same State Arginine A GF 22]"
assigned_class = "no (0)"

[[record]]
chain_sequence = "AAUUGAGUGACGGCCGCCACUAGAGUGAUUUUUUUGUUUGAGUGAUGUUUUGAUGUUUGAUGUUGUAGGACCGGGUUGAGUGAUG [vvrvmullin]"
assigned_class = "yes (1)"

[[record]]
chain_sequence = "UGUUUUUACUGAAGGAGCGGCAAUUGAUACGUAGAUAUAGUGAUGUUAUAUAAGAUAGAGAGCCAGGUAGGUCGCAGAAUGAAUC [ExArgB.aD]"
assigned_class = "yes (1)"

[[record]]
chain_sequence = "UUGGAGUGAUGUUCCAUAUCUUGAGCGGAAGGAGCGGCAAAAGUGCCAGGUAGGUCGCCGCAGAAGGUACCAGUGAUGUUGGAAA [Same State Arginine A GF 3]"
assigned_class = "no (0)"

[[record]]
chain_sequence = "UUAGAGAUCUCAGGAUAUCAGUGAUGUUGGUGUAAAGAUCUGAGAUAGAAUUCUAUCUCAGAUCAAUGAGAAGGGAGAUCUCAUU [AK3.2 Exc FMN B]"
assigned_class = "yes (1)"

[[record]]
chain_sequence = "ACGAAGGAUGGAAGGAGCGCUCGUCAGUCCUGCGAGUGAUGUUCGUGGGUAAAUAUUCGCGAGCAGGUAGGUCGCCAUCUUGAAC [Veticeen]"
assigned_class = "no (0)"


Exam item: Evaluate GGCAGUGAUGUUGCCUAAGCAACGCAUGCGGAGGAUAUUCGUUCGGGAAGAAGGCCGCAGCGUUCUCUCGAGUGAUGUUCGAGUA [Same State FMN A GF 21] : apparent KD of K4 kissing-loop reporter at minimum 200 nM?
Marked response: no (0)

Exam item: Evaluate ACCUACCAUUAGUGAUGUUAAUGGACGGAAGGAGCGCAGAUAUCUGCAGGUAGGUCGCCGAAGGCUAGACAUUGUCUAGCCAUUU [AK1.3 SS Arginine A] : apparent KD of K4 kissing-loop reporter at minimum 200 nM?
Marked response: no (0)

Exam item: Evaluate UACAAUUUGGCGGCCGCCACUGACCAUAGCCUUCGAUGGCCAGUGAUGUUGGCCUCUGGCUCUAACAGGACCGGGCCAAAUUAUG [Maeste] : apparent KD of K4 kissing-loop reporter at minimum 200 nM?
Marked response: yes (1)

Exam item: Evaluate GCAGUGAUGUUGCGGAUGUACAGUGGCGUGCGAGGACCGGUACGGCCGCCACUCGUACAGCACAAGCUAAUACAUCGAUAGGUGA [whbob_SS_Tryp_A_m2] : apparent KD of K4 kissing-loop reporter at minimum 200 nM?
Marked response: yes (1)

Exam item: Evaluate AAUAAGGAGUGAUGUUCCAAGUGAUGUUAACGAGGACCGGUACGGCCGCCACUCGAUACGGCCGGAAAGUAAGAUAAACUAAAAU [Same State - Tryptophan A (Freestyle 2)] : apparent KD of K4 kissing-loop reporter at minimum 200 nM?
Marked response: no (0)

Exam item: Evaluate UGUCAUUGGUCGGCCGCCACUUCAAAAGGUCAAAGACCAGAGUGAUGUUCUUCACGAAACGUGAGAAGGACCGGGACCGAUGACU [TrypBS 12 #SwitchBubble #K4Middle] : apparent KD of K4 kissing-loop reporter at minimum 200 nM?
Marked response: yes (1)

Exam item: Evaluate UAAUAAAUUCCAGCGAUAUCGCUCUUCGAAGGAGCGGGCGAAGGUCCAGGUAGGUCGCGGAGAGUGAUGUUCUUUGCGGCGCUGG [whbob_Ex_Arginine_A_2t135] : apparent KD of K4 kissing-loop reporter at minimum 200 nM?
Marked response: yes (1)

Exam item: Evaluate AUUAUAAAGGCGGCCGCCACUAGUGAUGUUAGUGACUUAUGUAUUAUCAUAAGAAUAAAAUAAAAUAGGACCGGGCCAAAAUAUU [AstrosExTryB#3] : apparent KD of K4 kissing-loop reporter at minimum 200 nM?
Marked response: yes (1)

Exam item: Evaluate AUUUAGACGAGUGAUGUUCGUGUUAUUACAGAGGAUAUGCGUGAUUGCAGAAGGCUGUAUUUAUAUAUGUUAUGUGGUUUUAAAA [whbob_Ex_FMNA__2th186] : apparent KD of K4 kissing-loop reporter at minimum 200 nM?
Marked response: no (0)

Exam item: Evaluate UUUGGAUUGCGCGAAGAGUGCAAGCGCCAACGAGGACCGGUACGGCCGCCACUCGCGGAGGAGUCCAGUGAUGUUGGACGGCCCG [Laraones] : apparent KD of K4 kissing-loop reporter at minimum 200 nM?
Marked response: yes (1)

Exam item: Evaluate AGUGAUGUGGGAAGGAGCGGUACAUGACUUCAGUGAUGUUGAAGUGAUGAUUUAGUGAUGUGCCAGGUAGGUCGCCUAGAUGUUA [KL-XARG-B7] : apparent KD of K4 kissing-loop reporter at minimum 200 nM?
Marked response: no (0)

Exam item: Evaluate UAGACCAGUGAUGUUGGUUCCAAGACGGAUACCAGACUGGCAGAAGUCCCUUGGCAGCUGUAGACCUUGUGAGCUACAAGGUCGG [Theo A SS t2] : apparent KD of K4 kissing-loop reporter at minimum 200 nM?
Marked response: no (0)

Exam item: Evaluate GGAUAGGAUAGAGGAUAUGGUAGUGAUGUUACCAAACUGGUUAAACAUGUCAGAAAACUGGCAUGACCAGAAGGUUGUCCUAUCG [FmnBX 27 U9+U75] : apparent KD of K4 kissing-loop reporter at minimum 200 nM?
Marked response: no (0)
